# System: MPNST complex spheroid with HUVEC/MSC, growth, % test/control
# procedure_text: Anticancer human tumor MPNST cell line growth inhibition [Asc];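 also: compounds left on spheroids for seven days before reading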
# condition_label: second compound 1 µM; first compound 0.0316 µM; active compounds read low
experimental_readout: viability, T/C (%)
Answers are plain numbers, in %.

Here's what some known entries look like.
[
  {
    "compound": "O=C(c1ccc(F)c(F)c1Nc1ccc(I)cc1F)N1CC(O)([C@@H]2CCCCN2)C1 + Cc1c(S(C)(=O)=O)c(-c2cc(F)cc(N3CCN(c4ccc(NS(=O)(=O)c5ccc(NC(CCN6CCC(C(=O)OCCCP(=O)(O)O)CC6)CSc6ccccc6)c(S(=O)(=O)C(F)(F)F)c5)cc4)CC3)c2)c(-c2ccc(Cl)cc2)n1C(C)C",
    "viability, T/C [%]": 106
  },
  {
    "compound": "Cn1ncnc1[C@H]1c2n[nH]c(=O)c3cc(F)cc(c23)N[C@@H]1c1ccc(F)cc1 + Cc1c(S(C)(=O)=O)c(-c2cc(F)cc(N3CCN(c4ccc(NS(=O)(=O)c5ccc(NC(CCN6CCC(C(=O)OCCCP(=O)(O)O)CC6)CSc6ccccc6)c(S(=O)(=O)C(F)(F)F)c5)cc4)CC3)c2)c(-c2ccc(Cl)cc2)n1C(C)C",
    "viability, T/C [%]": 55.9
  },
  {
    "compound": "CNC(C)C(=O)NC1CN(S(=O)(=O)c2cccc(S(=O)(=O)N3CCC4CCC(C(=O)NC(c5ccccc5)c5ccccc5)N4C(=O)C(NC(=O)C(C)NC)C3)c2)CCC2CCC(C(=O)NC(c3ccccc3)c3ccccc3)N2C1=O (stereo not drawn) + Cc1c(S(C)(=O)=O)c(-c2cc(F)cc(N3CCN(c4ccc(NS(=O)(=O)c5ccc(NC(CCN6CCC(C(=O)OCCCP(=O)(O)O)CC6)CSc6ccccc6)c(S(=O)(=O)C(F)(F)F)c5)cc4)CC3)c2)c(-c2ccc(Cl)cc2)n1C(C)C",
    "viability, T/C [%]": 152
  },
  {
    "compound": "C=CC(=O)N1CCN(c2nc(=O)n(-c3c(C)ccnc3C(C)C)c3nc(-c4c(O)cccc4F)c(F)cc23)C(C)C1 (stereo not drawn) + CNC(C)C(=O)NC1CN(S(=O)(=O)c2cccc(S(=O)(=O)N3CCC4CCC(C(=O)NC(c5ccccc5)c5ccccc5)N4C(=O)C(NC(=O)C(C)NC)C3)c2)CCC2CCC(C(=O)NC(c3ccccc3)c3ccccc3)N2C1=O",
    "viability, T/C [%]": 98.4
  },
  {
    "compound": "O=C(c1cc(Cc2n[nH]c(=O)c3ccccc23)ccc1F)N1CCN(C(=O)C2CC2)CC1 + Cc1c(S(C)(=O)=O)c(-c2cc(F)cc(N3CCN(c4ccc(NS(=O)(=O)c5ccc(NC(CCN6CCC(C(=O)OCCCP(=O)(O)O)CC6)CSc6ccccc6)c(S(=O)(=O)C(F)(F)F)c5)cc4)CC3)c2)c(-c2ccc(Cl)cc2)n1C(C)C",
    "viability, T/C [%]": 58.5
  },
  {
    "compound": "Cn1ncnc1[C@H]1c2n[nH]c(=O)c3cc(F)cc(c23)N[C@@H]1c1ccc(F)cc1 + CNC(C)C(=O)NC1CN(S(=O)(=O)c2cccc(S(=O)(=O)N3CCC4CCC(C(=O)NC(c5ccccc5)c5ccccc5)N4C(=O)C(NC(=O)C(C)NC)C3)c2)CCC2CCC(C(=O)NC(c3ccccc3)c3ccccc3)N2C1=O",
    "viability, T/C [%]": 53.9
  }
]

Please go through the list and note viability, T/C for each compound.
1. NC1CCC(NC2CC2c2ccccc2)CC1 (stereo not drawn) + CNC(C)C(=O)NC1CN(S(=O)(=O)c2cccc(S(=O)(=O)N3CCC4CCC(C(=O)NC(c5ccccc5)c5ccccc5)N4C(=O)C(NC(=O)C(C)NC)C3)c2)CCC2CCC(C(=O)NC(c3ccccc3)c3ccccc3)N2C1=O
2. C#Cc1c(F)ccc2cc(O)cc(-c3ncc4c(N5CC6CCC(C5)N6)nc(OCC56CCCN5CC(F)C6)nc4c3F)c12 (stereo not drawn) + Cc1c(S(C)(=O)=O)c(-c2cc(F)cc(N3CCN(c4ccc(NS(=O)(=O)c5ccc(NC(CCN6CCC(C(=O)OCCCP(=O)(O)O)CC6)CSc6ccccc6)c(S(=O)(=O)C(F)(F)F)c5)cc4)CC3)c2)c(-c2ccc(Cl)cc2)n1C(C)C
3. NC1CCC(NC2CC2c2ccccc2)CC1 (stereo not drawn) + Cc1c(S(C)(=O)=O)c(-c2cc(F)cc(N3CCN(c4ccc(NS(=O)(=O)c5ccc(NC(CCN6CCC(C(=O)OCCCP(=O)(O)O)CC6)CSc6ccccc6)c(S(=O)(=O)C(F)(F)F)c5)cc4)CC3)c2)c(-c2ccc(Cl)cc2)n1C(C)C
4. CCN1CCN(Cc2ccc(Nc3ncc(F)c(-c4cc(F)c5nc(C)n(C(C)C)c5c4)n3)nc2)CC1 + CNC(C)C(=O)NC1CN(S(=O)(=O)c2cccc(S(=O)(=O)N3CCC4CCC(C(=O)NC(c5ccccc5)c5ccccc5)N4C(=O)C(NC(=O)C(C)NC)C3)c2)CCC2CCC(C(=O)NC(c3ccccc3)c3ccccc3)N2C1=O
5. O=C(c1ccc(F)c(F)c1Nc1ccc(I)cc1F)N1CC(O)([C@@H]2CCCCN2)C1 + CNC(C)C(=O)NC1CN(S(=O)(=O)c2cccc(S(=O)(=O)N3CCC4CCC(C(=O)NC(c5ccccc5)c5ccccc5)N4C(=O)C(NC(=O)C(C)NC)C3)c2)CCC2CCC(C(=O)NC(c3ccccc3)c3ccccc3)N2C1=O
6. C=C(F)C(=O)N1CCN(c2nc(OCC3CCCN3C)nc3c2CCN(c2cccc4cccc(Cl)c24)C3)CC1CC#N (stereo not drawn) + CNC(C)C(=O)NC1CN(S(=O)(=O)c2cccc(S(=O)(=O)N3CCC4CCC(C(=O)NC(c5ccccc5)c5ccccc5)N4C(=O)C(NC(=O)C(C)NC)C3)c2)CCC2CCC(C(=O)NC(c3ccccc3)c3ccccc3)N2C1=O
7. C=C(F)C(=O)N1CCN(c2nc(OCC3CCCN3C)nc3c2CCN(c2cccc4cccc(Cl)c24)C3)CC1CC#N (stereo not drawn) + Cc1c(S(C)(=O)=O)c(-c2cc(F)cc(N3CCN(c4ccc(NS(=O)(=O)c5ccc(NC(CCN6CCC(C(=O)OCCCP(=O)(O)O)CC6)CSc6ccccc6)c(S(=O)(=O)C(F)(F)F)c5)cc4)CC3)c2)c(-c2ccc(Cl)cc2)n1C(C)C

Ans:
85.2
97
69.4
66.4
105
91.9
73.5
